- studyTarget: T1, EsCas13d, nuclease-dead (Eubacterium siraeum, UniProt B0MS50, R295A;H300A;R849A;H854A)
- T1 sequence: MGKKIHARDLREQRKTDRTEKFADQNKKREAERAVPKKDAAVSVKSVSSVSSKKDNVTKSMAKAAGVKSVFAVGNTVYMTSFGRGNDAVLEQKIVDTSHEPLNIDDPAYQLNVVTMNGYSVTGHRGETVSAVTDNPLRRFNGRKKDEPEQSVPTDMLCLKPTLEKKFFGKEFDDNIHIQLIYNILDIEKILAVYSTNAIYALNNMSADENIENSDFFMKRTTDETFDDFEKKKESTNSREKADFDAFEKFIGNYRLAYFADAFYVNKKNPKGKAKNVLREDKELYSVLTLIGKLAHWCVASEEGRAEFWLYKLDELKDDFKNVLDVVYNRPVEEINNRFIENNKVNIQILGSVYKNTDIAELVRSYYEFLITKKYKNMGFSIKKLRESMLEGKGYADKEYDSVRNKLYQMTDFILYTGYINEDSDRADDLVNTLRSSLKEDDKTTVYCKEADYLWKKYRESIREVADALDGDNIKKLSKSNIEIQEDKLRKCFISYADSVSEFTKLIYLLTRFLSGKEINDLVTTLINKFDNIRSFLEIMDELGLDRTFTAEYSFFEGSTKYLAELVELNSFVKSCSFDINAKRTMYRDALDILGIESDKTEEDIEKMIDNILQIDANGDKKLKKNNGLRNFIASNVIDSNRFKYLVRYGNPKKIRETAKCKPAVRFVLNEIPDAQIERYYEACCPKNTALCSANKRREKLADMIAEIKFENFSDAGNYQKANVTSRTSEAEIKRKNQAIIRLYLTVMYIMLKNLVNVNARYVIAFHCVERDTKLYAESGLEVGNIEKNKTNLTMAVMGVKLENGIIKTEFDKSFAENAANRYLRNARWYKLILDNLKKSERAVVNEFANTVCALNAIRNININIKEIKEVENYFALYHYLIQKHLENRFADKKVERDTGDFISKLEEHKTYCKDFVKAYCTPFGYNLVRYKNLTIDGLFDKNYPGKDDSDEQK
- experimentNotes: crRNA (strand 1, pre-loaded); Mg2+; 40 mM Tris-HCl pH 7.5, 150 mM NaCl, 6 mM MgCl2, 1 mM DTT, 0.1% Tween-20, 0.2 mg/ml BSA; 25 C; 10 min per concentration, then washed
- reportedConditions: tags: His6-TwinStrep-SUMO cleaved; N-terminal SNAP kept (SNAP-Surface 488); label: 3' end held by stalled T7 RNA polymerase
pKd: −log10 of the molar value.
Measured pKd values are reported for all entries that follow.

binder: target 1 G5A,C21U (mixed) RNA 1: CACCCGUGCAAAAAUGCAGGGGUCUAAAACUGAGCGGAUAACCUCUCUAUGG RNA 2: GGGAAUGGAUCCACAUCUACGAAUUCGUACUAUAGAGAGGUUAUCCACUCACCGAGAUCGGAAGAGCACACGU
pKd: 7.64
//
binder: target 3 A12C (mixed) RNA 1: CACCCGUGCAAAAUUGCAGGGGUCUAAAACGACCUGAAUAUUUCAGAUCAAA RNA 2: GGGAAUGGAUCCACAUCUACGAAUUCGUUUUUGAUCUGACAUAUUCAGGUCUGCAGAUCGGAAGAGCACACGU
pKd: 7.28
